Biological target: recombinant full-length PfCSP (Plasmodium falciparum circumsporozoite protein, strain NF54) (Plasmodium falciparum NF54, UniProt P19597)
Sequence (P19597 20-375): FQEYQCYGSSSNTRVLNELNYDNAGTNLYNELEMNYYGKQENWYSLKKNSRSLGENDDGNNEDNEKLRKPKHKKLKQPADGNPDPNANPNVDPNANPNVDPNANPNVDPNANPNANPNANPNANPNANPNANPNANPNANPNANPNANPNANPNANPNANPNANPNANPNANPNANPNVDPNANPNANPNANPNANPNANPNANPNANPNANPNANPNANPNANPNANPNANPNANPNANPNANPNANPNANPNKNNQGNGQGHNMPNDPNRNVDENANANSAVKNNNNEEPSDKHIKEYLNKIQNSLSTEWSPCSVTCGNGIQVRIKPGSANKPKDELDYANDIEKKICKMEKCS
Endpoint: binding result

Binder: CL-441816 (antibody, V domains shown) VH: QEQLVESGGGVVQPGRSLRLSCATSGFTFSTYGLHWVRQSPGKGLEWVTVIWYDGSNKFYADSVKGRFTISRDNSKNTLYLQMNSLRAEDTAVYYCARALYSSRWYGAFDIWGQGTMVTVSS VL: QSVLTQPPSVSGAPGQRVTISCTGSSSNIGAGYDVHWYQLLPGTAPKLLIYGNSNRPSGVPDRFSGSKSGTSASLAITGLQAEDEADYYCQSYIRSLSGSVFGGGTKLTVL
Endpoint: binding result
Experimental result: binds
--
Binder: CL-510640 (antibody, V domains shown) VH: QVQLVESGGGVVQPGRSLRLSCAASGFTFSNYGMHWVRQAPVKGLEWVAIIWYDGSNKFYADSVRGRFIISRDNSKNTLYLQMNSLRAEDTAVYFCARAREGQNSDYYGSETSYTFDSWGLGTLVTVSS VL: DIQMTQSPSTLSASVGDRVTITCRASQSISSWLAWYQQKPGKAPKFLIYKASSLESGVPSRFSGSGSGTEFTLTISSLQPDDFATYYCQQYKSYWTFGQGTKVEIK
Endpoint: binding result
Experimental result: binds

The measured values listed here are drawn from paper PMC10720262.
